Measured On: His-hSHIP1 enzyme (Homo sapiens, UniProt Q92835)
Construct: His
Sequence (Q92835 whole entry): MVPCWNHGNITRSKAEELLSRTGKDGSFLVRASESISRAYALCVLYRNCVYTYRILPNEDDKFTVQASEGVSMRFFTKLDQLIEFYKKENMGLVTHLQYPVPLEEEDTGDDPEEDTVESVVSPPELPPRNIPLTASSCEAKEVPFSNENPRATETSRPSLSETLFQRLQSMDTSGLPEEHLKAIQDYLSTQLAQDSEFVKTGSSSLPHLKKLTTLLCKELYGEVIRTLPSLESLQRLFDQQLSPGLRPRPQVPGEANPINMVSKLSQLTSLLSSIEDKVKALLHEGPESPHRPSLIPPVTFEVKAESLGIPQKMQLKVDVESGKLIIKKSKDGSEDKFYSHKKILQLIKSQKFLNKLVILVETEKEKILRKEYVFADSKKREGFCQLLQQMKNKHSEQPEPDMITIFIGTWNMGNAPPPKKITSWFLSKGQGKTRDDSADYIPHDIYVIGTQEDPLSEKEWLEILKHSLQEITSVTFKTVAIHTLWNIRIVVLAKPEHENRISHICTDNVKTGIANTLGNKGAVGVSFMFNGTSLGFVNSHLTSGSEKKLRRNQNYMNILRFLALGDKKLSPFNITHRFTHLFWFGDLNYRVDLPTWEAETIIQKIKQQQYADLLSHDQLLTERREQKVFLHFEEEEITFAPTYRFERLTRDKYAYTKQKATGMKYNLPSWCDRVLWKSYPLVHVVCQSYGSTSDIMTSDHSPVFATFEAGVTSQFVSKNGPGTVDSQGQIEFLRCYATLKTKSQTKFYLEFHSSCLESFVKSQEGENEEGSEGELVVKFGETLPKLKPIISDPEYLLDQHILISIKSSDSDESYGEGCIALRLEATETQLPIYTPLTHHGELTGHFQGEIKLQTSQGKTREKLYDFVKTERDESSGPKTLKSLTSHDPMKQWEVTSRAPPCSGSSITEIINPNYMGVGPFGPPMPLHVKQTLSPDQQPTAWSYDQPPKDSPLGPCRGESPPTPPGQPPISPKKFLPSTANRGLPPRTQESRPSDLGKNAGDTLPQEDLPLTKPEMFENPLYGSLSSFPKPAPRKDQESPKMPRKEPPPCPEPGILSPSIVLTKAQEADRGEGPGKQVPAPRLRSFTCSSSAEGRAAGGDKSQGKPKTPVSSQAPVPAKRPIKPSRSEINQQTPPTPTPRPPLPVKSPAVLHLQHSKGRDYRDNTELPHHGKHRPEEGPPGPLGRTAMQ
Experimental Protocol: His-hSHIP1 activity (phosphatase assay, IP4 substrate, Biomol Green)
Type: biochemical
Parameters: key: +++: higher than reference or reference - 15%; ++: reference - 16% to reference - 30%; +: reference - 31% or lower; −: inhibitor
Setup Conditions: second approach: ratio of initial velocities IP4 25/250 μM compared with reference compound; values without asterisk
Parameter Measured: Scoring, Approach 2 (Initial velocity Ratio)

Example entries begin here.
> print(dat)
                                   compound                               measured.on  reported.result
1  C=C1CC[C@H]2[C@H](O)[C@@H]([C@@]3(C)CC[C@H](O)C[C@@H]3CCn3cccc3)CC[C@]12C [Cpd. No. 52]  His-hSHIP1 enzyme (Homo sapiens, UniProt Q92835)                −
2  C=C1CC[C@H]2[C@H](CNCc3ccc4c(c3)OC(F)(F)O4)[C@@H]([C@@]3(C)CC[C@H](O)C[C@@H]3CO)CC[C@]12C [Cpd. No. 37]  His-hSHIP1 enzyme (Homo sapiens, UniProt Q92835)               ++
3  C=C1CC[C@H]2[C@H](CNC(=O)NCc3ccccc3)[C@@H]([C@@]3(C)CC[C@H](O)C[C@@H]3CO)CC[C@]12C [Cpd. No. 91]  His-hSHIP1 enzyme (Homo sapiens, UniProt Q92835)                +
4  C=C1CC[C@H]2[C@H](CCNC(=O)c3ccc4c(c3)OCO4)[C@@H]([C@@]3(C)CC[C@H](O)C[C@@H]3O)CC[C@]12C [Cpd. No. 93]  His-hSHIP1 enzyme (Homo sapiens, UniProt Q92835)               ++
5  C=C1CC[C@H]2[C@H](CCN(Cc3ccc(OC)cc3)Cc3ccc(OC)cc3)[C@@H]([C@@]3(C)CC[C@H](O)C[C@@H]3O)CC[C@]12C [Cpd. No. 43]  His-hSHIP1 enzyme (Homo sapiens, UniProt Q92835)               ++

Shifting focus to the compound that follows.
Form field Scoring, Approach 2 (Initial velocity Ratio) for item C=C1CC[C@H]2[C@H](Cn3cncn3)[C@@H]([C@@]3(C)CC[C@H](O)C[C@@H]3CO)CC[C@]12C [Cpd. No. 27] on His-hSHIP1 enzyme (Homo sapiens, UniProt Q92835): +

* * *

Measured On: His-hSHIP1 enzyme (Homo sapiens, UniProt Q92835)
Construct: His
Experimental Protocol: His-hSHIP1 activity (phosphatase assay, IP4 substrate, Biomol Green)
Format: biochemical
Parameters: key: +++: higher than reference or reference - 15%; ++: reference - 16% to reference - 30%; +: reference - 31% or lower; −: inhibitor
Setup Conditions: second approach: ratio of initial velocities IP4 25/250 μM compared with reference compound; values without asterisk
Parameter Measured: Scoring, Approach 2 (Initial velocity Ratio)

> print(dat)
                            compound.smiles  reported.result
1  C=C1CC[C@H]2[C@H](CCNCc3ccc(OC)cc3)[C@@H]([C@@]3(C)CC[C@H](O)C[C@@H]3O)CC[C@]12C               ++
2  C=C1CC[C@H]2[C@H](O)[C@@H]([C@@]3(C)CC[C@H](O)C[C@@H]3CCN3CCOCC3)CC[C@]12C               ++
3  C=C1CC[C@H]2[C@H](CN)[C@@H]([C@@]3(C)CC[C@H](O)C[C@@H]3CN)CC[C@]12C                +
4  C=C1CC[C@H]2[C@H](COCc3ccccc3)[C@@H]([C@@]3(C)CC[C@H](O)C[C@@H]3CO)CC[C@]12C               ++

Recorded Scoring, Approach 2 (Initial velocity Ratio) (compound "CC1(C)C2=C(C[C@H]1O)[C@H](CO)[C@@H]([C@@]1(C)CC[C@H](O)C[C@@H]1CO)CC2" ): +

Notebook: "C=C1CC[C@H]2[C@H](CNCc3ccc(F)cc3)[C@@H]([C@@]3(C)CC[C@H](O)C[C@@H]3CO)CC[C@]12C" , Scoring, Approach 2 (Initial velocity Ratio) read as −

Field Scoring, Approach 2 (Initial velocity Ratio) (entry "CC1(C)CCC2=C1CC[C@H]([C@@]1(C)CC[C@H](O)C[C@@H]1CO)[C@H]2CNC(=O)c1ccccc1" ) reads +

* * *

Measured On: His-hSHIP1 enzyme (Homo sapiens, UniProt Q92835)
Construct: His
Experimental Protocol: His-hSHIP1 activity (phosphatase assay, IP4 substrate, Biomol Green)
Format: biochemical
Parameters: key: +++: higher than reference or reference - 15%; ++: reference - 16% to reference - 30%; +: reference - 31% or lower; −: inhibitor
Setup Conditions: second approach: ratio of initial velocities IP4 25/250 μM compared with reference compound; values without asterisk
Parameter Measured: Scoring, Approach 2 (Initial velocity Ratio)

Below, 4 molecules whose answers are already recorded.
> print(dat)
                            compound.smiles  reported.result
1  CNC[C@H]1C2=C(CC[C@@H]1[C@@]1(C)CC[C@H](O)C[C@@H]1CO)C(C)(C)CC2              +++
2  C=C1CC[C@H]2[C@H](CNC(=O)c3cccnc3)[C@@H]([C@@]3(C)CC[C@H](O)C[C@@H]3CO)CC[C@]12C                +
3  C=C1CC[C@H]2[C@H](CNCc3ccccc3C)[C@@H]([C@@]3(C)CC[C@H](O)C[C@@H]3CO)CC[C@]12C               ++
4  C=C1CC[C@H]2[C@H](CNCc3ccc(OC)cc3)[C@@H]([C@@]3(C)CC[C@H](O)C[C@@H]3CO)CC[C@]12C                +

Bench note, His-hSHIP1 enzyme (Homo sapiens, UniProt Q92835): entry "C=C1CC[C@H]2[C@H](COCc3ccccn3)[C@@H]([C@@]3(C)CC[C@H](O)C[C@@H]3CO)CC[C@]12C" , its Scoring, Approach 2 (Initial velocity Ratio) = ++

Scoring, Approach 2 (Initial velocity Ratio) value, target or system His-hSHIP1 enzyme (Homo sapiens, UniProt Q92835), for "C=C1CC[C@H]2[C@H](O)[C@@H]([C@@]3(C)CC[C@H](O)C[C@@H]3CCOc3cnccn3)CC[C@]12C" : −

# lookup: "CC(=O)NC[C@H]1C2=C(CC[C@@H]1[C@@]1(C)CC[C@H](O)C[C@@H]1CO)C(C)(C)CC2" on His-hSHIP1 enzyme (Homo sapiens, UniProt Q92835), Scoring, Approach 2 (Initial velocity Ratio) = +

Entry "CC1(C)C=CC2=C1CC[C@H]([C@@]1(C)CC[C@H](O)C[C@@H]1CO)[C@H]2CO" , tested on His-hSHIP1 enzyme (Homo sapiens, UniProt Q92835), has a reported Scoring, Approach 2 (Initial velocity Ratio) of ++

Tested on His-hSHIP1 enzyme (Homo sapiens, UniProt Q92835): "CC1(C)CCC2=C1CC[C@H]([C@@]1(C)CC[C@H](O)C[C@@H]1CO)[C@H]2CNC(=N)N.Cl" . Observed Scoring, Approach 2 (Initial velocity Ratio): ++

Record for "C=C1CC[C@H]2[C@H](Cn3cccn3)[C@@H]([C@@]3(C)CC[C@H](O)C[C@@H]3CO)CC[C@]12C" under target or system His-hSHIP1 enzyme (Homo sapiens, UniProt Q92835): Scoring, Approach 2 (Initial velocity Ratio) reported as ++

Item "CC1(C)CCC2=C1CC[C@H]([C@@]1(C)CC[C@H](O)C[C@@H]1CO)[C@H]2CNS(C)(=O)=O" was tested on His-hSHIP1 enzyme (Homo sapiens, UniProt Q92835); the reported Scoring, Approach 2 (Initial velocity Ratio) is +

Fill in: His-hSHIP1 enzyme (Homo sapiens, UniProt Q92835) Scoring, Approach 2 (Initial velocity Ratio) for "C=C1CC[C@H]2[C@H](CCNCc3ccc4c(c3)OCO4)[C@@H]([C@@]3(C)CC[C@H](O)C[C@@H]3O)CC[C@]12C" = −

The reported Scoring, Approach 2 (Initial velocity Ratio) value, His-hSHIP1 enzyme (Homo sapiens, UniProt Q92835), for "CC1(C)CCC2=C1CC[C@H]([C@@]1(C)CC[C@H](O)C[C@@H]1CO)[C@H]2CNCC1CC1" reads +
